Measured values drawn from paper PMC8620908 for this set.

target: UniProtKB P00533
Sequence (P00533 25-1210): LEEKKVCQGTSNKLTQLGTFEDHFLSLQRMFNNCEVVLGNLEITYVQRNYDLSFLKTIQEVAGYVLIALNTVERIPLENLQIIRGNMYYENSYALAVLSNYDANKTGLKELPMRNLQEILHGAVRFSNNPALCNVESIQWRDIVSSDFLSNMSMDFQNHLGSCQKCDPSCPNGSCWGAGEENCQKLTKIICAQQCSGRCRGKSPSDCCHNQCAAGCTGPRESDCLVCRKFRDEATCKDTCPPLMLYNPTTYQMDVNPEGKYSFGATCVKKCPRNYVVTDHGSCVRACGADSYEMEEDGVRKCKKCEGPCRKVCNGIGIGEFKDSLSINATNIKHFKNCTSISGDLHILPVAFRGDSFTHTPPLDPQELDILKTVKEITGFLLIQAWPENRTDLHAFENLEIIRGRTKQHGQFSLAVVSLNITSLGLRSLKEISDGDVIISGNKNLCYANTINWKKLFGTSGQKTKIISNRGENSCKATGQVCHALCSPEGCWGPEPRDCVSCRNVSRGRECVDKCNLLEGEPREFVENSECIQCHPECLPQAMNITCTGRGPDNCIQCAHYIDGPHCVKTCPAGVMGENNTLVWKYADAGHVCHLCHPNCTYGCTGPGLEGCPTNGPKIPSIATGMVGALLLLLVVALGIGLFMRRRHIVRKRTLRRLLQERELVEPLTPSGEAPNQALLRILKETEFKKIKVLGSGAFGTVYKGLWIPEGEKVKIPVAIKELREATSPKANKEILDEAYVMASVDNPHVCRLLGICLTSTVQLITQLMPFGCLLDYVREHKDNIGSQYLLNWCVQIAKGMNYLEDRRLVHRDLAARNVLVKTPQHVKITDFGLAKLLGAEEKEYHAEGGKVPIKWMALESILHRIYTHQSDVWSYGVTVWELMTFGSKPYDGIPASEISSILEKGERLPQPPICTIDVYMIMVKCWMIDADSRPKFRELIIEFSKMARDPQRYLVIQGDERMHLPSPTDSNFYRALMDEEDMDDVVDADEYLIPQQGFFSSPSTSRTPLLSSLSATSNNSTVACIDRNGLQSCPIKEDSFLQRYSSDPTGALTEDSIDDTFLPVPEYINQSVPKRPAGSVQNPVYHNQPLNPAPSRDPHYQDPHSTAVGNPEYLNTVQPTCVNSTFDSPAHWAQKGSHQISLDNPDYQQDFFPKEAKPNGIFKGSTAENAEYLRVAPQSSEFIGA
pIC50: −log10 of the molar value.
measured.quantity: pIC50

A = COc1cc(-c2cc(-c3ccc(OCCCCC(=O)NO)cc3)[nH]c(=O)c2C#N)cc(OC)c1OC
B = COc1cc(/C=C/C(=O)c2ccc(OCCCCCCC(=O)NO)cc2)cc(OC)c1OC
Qu. Identify the entry with the larger pIC50. Options: A and B Answer with the label corresponding to your selection.
Ans. B
(B: 7.04, A: 6.67)
